Quick reference for IC50 among some molecules
# tested_target: PARP enzyme present in the cells (human cell line C4I) (Homo sapiens, UniProt P09874)
# Construct: endogenous in cells
# Sequence (P09874 whole entry): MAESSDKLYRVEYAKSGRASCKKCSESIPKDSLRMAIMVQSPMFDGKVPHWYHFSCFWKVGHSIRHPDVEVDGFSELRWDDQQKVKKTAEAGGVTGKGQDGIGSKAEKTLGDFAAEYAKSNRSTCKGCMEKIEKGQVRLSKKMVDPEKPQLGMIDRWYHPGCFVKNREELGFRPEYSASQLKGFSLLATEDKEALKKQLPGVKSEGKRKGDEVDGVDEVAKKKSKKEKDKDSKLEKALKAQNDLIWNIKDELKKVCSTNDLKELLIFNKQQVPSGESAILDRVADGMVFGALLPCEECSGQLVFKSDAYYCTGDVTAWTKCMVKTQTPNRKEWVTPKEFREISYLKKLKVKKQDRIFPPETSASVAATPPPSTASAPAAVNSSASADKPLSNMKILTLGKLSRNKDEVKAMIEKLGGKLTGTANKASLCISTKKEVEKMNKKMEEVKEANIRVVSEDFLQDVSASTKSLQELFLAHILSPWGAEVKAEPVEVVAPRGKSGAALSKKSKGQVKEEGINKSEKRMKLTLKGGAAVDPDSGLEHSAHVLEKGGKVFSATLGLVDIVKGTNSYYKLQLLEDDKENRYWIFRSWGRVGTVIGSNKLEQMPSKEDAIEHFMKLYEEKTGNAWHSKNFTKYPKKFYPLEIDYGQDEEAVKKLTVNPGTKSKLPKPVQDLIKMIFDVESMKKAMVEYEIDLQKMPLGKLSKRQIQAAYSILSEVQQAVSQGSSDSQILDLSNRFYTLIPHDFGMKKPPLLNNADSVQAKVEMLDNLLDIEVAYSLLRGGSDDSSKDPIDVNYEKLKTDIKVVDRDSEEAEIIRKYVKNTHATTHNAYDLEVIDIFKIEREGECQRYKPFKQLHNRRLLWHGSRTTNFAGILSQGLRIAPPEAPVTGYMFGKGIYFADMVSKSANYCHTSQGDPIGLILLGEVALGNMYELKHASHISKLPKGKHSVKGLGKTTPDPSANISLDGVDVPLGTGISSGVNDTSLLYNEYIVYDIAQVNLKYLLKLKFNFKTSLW
# assay_notes: Test of PARP inhibitors in a cellular assay (H2O2-induced PAR formation, immunofluorescence)
# experimental_conditions: 1 mM hydrogen peroxide, FITC signal standardized to DAPI
Kindly answer with a numeric value in nM, unit omitted.

A selection of reference data follows.
>>> numeric_value("CCN(CC)CCN(C)c1ccc(-c2nc3c(C(N)=O)cccc3[nH]2)cc1")
115
>>> numeric_value("CN(C)CCN(C)c1ccc(-c2nc3c(C(N)=O)cccc3[nH]2)cc1")
119

// next entry
Kindly note: PARP enzyme present in the cells (human cell line C4I) (Homo sapiens, UniProt P09874), CN(C)CCc1cc(-c2nc3c(C(N)=O)cccc3[nH]2)ccc1[N+](=O)[O-] , IC50 value reported: 118
